Experiment: in vitro
Details: human, hela cells, % viability
endpoint_label: viability at 28.5 h, 10 µM
Number first, unit second: that is the form wanted.

// viability at 28.5 h, 10 µM lookup, key: COCC(=O)N1CCN2C(=O)[C@@H]3C[C@@H](OCc4ccc(F)cc4)CN3C(=O)[C@@H]2C1 [CBK289605] 99.1%

What does the data say about its viability at 28.5 h, 10 µM? Entry: Cc1ccc(CNC(Cc2c[nH]c3ccccc23)C(=O)O)cc1 (stereo not drawn) [CBK287145] 106%

I have this compound here, CCCCC(Sc1ccc2nnc(-c3ccccn3)n2n1)C(=O)O (stereo not drawn) [CBK287622] , and I need its recorded viability at 28.5 h, 10 µM. 112%

Data request, read-out viability at 28.5 h, 10 µM, for CCC(=O)N1CCCc2cc(C(O)CN3CCCCC3)ccc21 (stereo not drawn) [CBK282130] 81.6%

Using the record for C=C(C)Cn1c(SC(C)C)nnc1-c1ccccc1Cl [CBK200079] , report its viability at 28.5 h, 10 µM. 99.9%

Fill in: viability at 28.5 h, 10 µM of CS(=O)(=O)N(CC(=O)O)c1cccc(C(F)(F)F)c1 [CBK286988] is ___ 87.8%

What value of viability at 28.5 h, 10 µM has been reported for the following compound? Cc1ccccc1-c1ccc(C(=O)N(C)CCN(C)C)c(N(C)C)n1 [CBK106090] 96%

Return reported viability at 28.5 h, 10 µM; argument: N=C1NC(=O)C(CC(=O)Nc2ccc(SC(F)F)cc2)S1 (stereo not drawn) [CBK265648] 91.1%

Entry under review: Cc1nc(N)sc1-c1nnc(SC/C=C/c2ccccc2)n1C [CBK269383] . Reported viability at 28.5 h, 10 µM? 81.7%

* * *

Assay: in vitro
Conditions: human, hela cells, % viability
endpoint_label: viability at 28.5 h, 10 µM (%)
Write the value in % as a bare number.

Query: viability at 28.5 h, 10 µM; subject: CN(C)S(=O)(=O)c1ccc(C(=O)Nc2cccc(N3Cc4ccccc4C3)c2)cc1 [CBK266025] 98.8

Which viability at 28.5 h, 10 µM is reported for this molecule? CC(CCc1ccc(F)cc1)NC(=O)c1cc2c([nH]c1=O)CCC2 (stereo not drawn) [CBK281512] 91.9

State the recorded viability at 28.5 h, 10 µM for this entry: Nc1ncc(-c2cc(C(F)(F)F)cc(C(F)(F)F)c2)nc1NC1CCC(O)CC1 (stereo not drawn) [CBK063808] 92

Give its viability at 28.5 h, 10 µM value. Item: Cc1cc(C(=O)Nc2ccccc2C(=O)O)ccc1NC(=O)CC(C)C [CBK263616] 101

For the molecule shown here, Cc1ccc(-c2nnc3s/c(=C\c4ccc([N+](=O)[O-])cc4)c(=O)n23)cc1 [CBK264882] , give the reported viability at 28.5 h, 10 µM. 101

Give its viability at 28.5 h, 10 µM value. Item: Cc1noc(C)c1C(=O)N1CCN(CCc2ccccc2)CC1 [CBK200225] 95.8

Which viability at 28.5 h, 10 µM is listed for Cc1cc(C)n(CC(O)CN2C(=O)NC(C)(C)C2=O)n1 (stereo not drawn) [CBK264811] ? 107

Reported viability at 28.5 h, 10 µM, molecule CCN(CCc1nc2cc(OC)ccc2[nH]1)C(=O)c1cc(C#N)cn1C [CBK306658] : ____ 90.5

Would you mind telling me what viability at 28.5 h, 10 µM value was observed for c1cnn(CC2CCCCN2c2ncnc3sccc23)c1 (stereo not drawn) [CBK304969] ? 92.1

* * *

Assay: in vitro
Conditions: human, hela cells, % viability
So I've got a bunch of compounds here, and I need their viability at 28.5 h, 10 µM values.
Report only the number, with the unit % understood.

Fill in the blank: the reported viability at 28.5 h, 10 µM of OC1(c2cccnc2)C2CCCC1CN(Cc1ccc(F)cc1)C2 (stereo not drawn) is ____. 89.8

Would you kindly share the measured viability at 28.5 h, 10 µM for CCc1ccc(CN2CCN(C(=O)c3ccncc3)CC2)cc1 [CBK301211G] ? 92.7

May I ask what viability at 28.5 h, 10 µM has been recorded for `CC(=O)NC1(c2ccc(F)cc2)CCN(CC(=O)NCC2CC2)CC1` ? 93.9

Give the measured viability at 28.5 h, 10 µM of `FC(F)(F)c1nc2ccccc2nc1OCCCc1ccncc1` . 85.1

What value of measured viability at 28.5 h, 10 µM is listed for Cc1ccc(S(=O)(=O)NC2CCC(C(=O)O)CC2)cc1 (stereo not drawn) ? 96.4

Which viability at 28.5 h, 10 µM reading was recorded for the compound Cn1nccc1C(=O)N[C@H]1C2CCCCC2[C@@H]1c1ccccc1 (stereo partly drawn) ? 102

Please report the recorded viability at 28.5 h, 10 µM for O=C(NCc1ccc2c(c1)OCO2)[C@H]1CN2CCC1C[C@@H]2Cn1cc(-c2ccccn2)nn1 (stereo partly drawn) . 102

Tell me the measured viability at 28.5 h, 10 µM of `CCc1nn(CC(=O)NC2CCC2)c(=O)c2cc3ccsc3n12` , please. 88.9

For the compound shown here, `O=S(=O)(NC1CCN(Cc2ccccc2)CC1)c1cccc2nsnc12` , give the reported viability at 28.5 h, 10 µM. 80.8

* * *

For each of the compounds below, state its % viability.
Test system: HeLa
Settings: bulk resorufin, single well, 28.5 h, 10 µM, Bulk resorufin fluorescence
Kindly answer with a numeric value in %, unit omitted.

Given the entry O=C(O)C1CCN(C2CC(=O)N(CCc3ccccc3)C2=O)CC1 (centres unmarked) [CBK269100] , report its measured % viability. 97.3

Need % viability, item CCn1c(C)nc2cc(C(=O)N3N=CCC3(O)C(F)(F)F)ccc21 (centres unmarked) [CBK019301] 108

I would be grateful if you could share the reported % viability for CCn1cc(CN2C[C@@H]3CCCN3C[C@@H]2CCSC)cn1 [CBK283181] . 106

Which % viability value belongs to C[C@@H](Cn1c(=O)oc2ccccc21)NC(=O)Cc1ccsc1 [CBK284535] ? 84.7

What value of % viability has been recorded for this entry: Cc1onc(-c2ccccc2)c1C(=O)NCCNC(=O)c1c(-c2ccccc2)noc1C [CBK085092] 108

* * *

Assay: in vitro
Conditions: human, hela cells, % viability
So I've got a bunch of compounds here, and I need their viability at 28.5 h, 10 µM values.
// return numeric value only (unit: %, not printed)

So what's the measured viability at 28.5 h, 10 µM for this one? Cc1cc(C)n2ncc(C(=O)N3CCCC3c3ccsc3)c2n1 (stereo not drawn) 94.6

What value of measured viability at 28.5 h, 10 µM is listed for `COc1cccc(Nc2nnc(-c3cc4cc(OC)ccc4oc3=O)s2)c1` ? 94.1

Which measured viability at 28.5 h, 10 µM value corresponds to CCc1cc(NCCc2ccc(=O)[nH]c2)nc(-c2ccc(Br)cc2)n1 [CBK144610C] ? 93.3

Recorded viability at 28.5 h, 10 µM for `COc1cnn(-c2ccccc2)c(=O)c1N(C)C` , please? 94

Which viability at 28.5 h, 10 µM value is on record for CC(C)NC(=O)[C@H]1CN2CCC1C[C@@H]2Cn1cc(-c2cccc(O)c2)nn1 (stereo partly drawn) ? 91.7

Request the reported viability at 28.5 h, 10 µM associated with CCOC(=O)c1c(C)n(-c2ccc(C)cc2)c2ccc(O)c(CN(C)C)c12 [CBK263499C] 78.5

// viability at 28.5 h, 10 µM lookup, key: `O=c1cc(N2CCOCC2)oc2cccc(O)c12` 91.3

Look up viability at 28.5 h, 10 µM: CCCCC[C@H](O)CCC1[C@H](O)C[C@@H]2Cc3c(cccc3OCC(=O)O)C[C@H]12 (stereo partly drawn) 98.3

Find the recorded viability at 28.5 h, 10 µM belonging to COc1cc(C=C2C(=O)OC(C)(C(C)(C)C)OC2=O)cc(Br)c1OC (stereo not drawn) and report it. 96.5

* * *

Experiment: in vitro
Parameters: Viability of infected HeLa host cells, resazurin conversion, bulk resorufin fluorescence relative to DMSO
Details: human, hela cells; bulk resorufin, mean of 2
Field: viability at 28.5 h, 1 µM. Provide a value for each of the molecules that follow.
State just the number; it will be interpreted in %.

Recorded viability at 28.5 h, 1 µM for `CC(C)(N)CNC(=O)c1cc(C(C)(C)C)nn1Cc1ccc(Cl)cc1Cl` , please? 91.1

Dear colleague, I am looking for the recorded viability at 28.5 h, 1 µM of the following molecule: `COc1cc(NS(=O)(=O)c2ccc(Nc3nc(-c4sc(N)nc4C)cs3)cc2)nc(OC)n1` 93.6

I have this molecule here, `O=C(Nc1ncc(-c2ccccc2)s1)c1cccc([N+](=O)[O-])c1` , and I need its recorded viability at 28.5 h, 1 µM. 114

May I ask what viability at 28.5 h, 1 µM has been recorded for O=C(Nc1ccc(F)c(F)c1)NC1CCC2CN(CCOc3ccccc3)CC2C1 (stereo not drawn) [CBK083365T] ? 89.3

Given `O=C(N/N=C/c1c(O)ccc2ccccc12)c1ccc(CO)nc1` , state its recorded viability at 28.5 h, 1 µM. 89.8

What value of measured viability at 28.5 h, 1 µM is listed for O=C(CC1SC(Nc2ccc(O)cc2)=NC1=O)c1ccccc1 (stereo not drawn) ? 114

Entry under review: CC(C)NCC(O)Cn1c2c(c3ccccc31)CCc1c-2cnn1-c1ccccc1 (stereo not drawn) . Reported viability at 28.5 h, 1 µM? 87.2

# viability at 28.5 h, 1 µM lookup, item `COc1ccc(C(=O)NNC(=O)/C=C/c2ccc(C(C)C)cc2)cc1` 95

# query: viability at 28.5 h, 1 µM of entry N#CC(CCCN1CCN(c2ccccc2)CC1)(c1ccccc1)c1ccccc1 [CBK002243C] 99.6
